Target: PI3Kβ (Homo sapiens)
Construct: purchased DiscoveRx Corporation, San Diego (contract service, KINOMEscan)
Sequence (P42338 whole entry): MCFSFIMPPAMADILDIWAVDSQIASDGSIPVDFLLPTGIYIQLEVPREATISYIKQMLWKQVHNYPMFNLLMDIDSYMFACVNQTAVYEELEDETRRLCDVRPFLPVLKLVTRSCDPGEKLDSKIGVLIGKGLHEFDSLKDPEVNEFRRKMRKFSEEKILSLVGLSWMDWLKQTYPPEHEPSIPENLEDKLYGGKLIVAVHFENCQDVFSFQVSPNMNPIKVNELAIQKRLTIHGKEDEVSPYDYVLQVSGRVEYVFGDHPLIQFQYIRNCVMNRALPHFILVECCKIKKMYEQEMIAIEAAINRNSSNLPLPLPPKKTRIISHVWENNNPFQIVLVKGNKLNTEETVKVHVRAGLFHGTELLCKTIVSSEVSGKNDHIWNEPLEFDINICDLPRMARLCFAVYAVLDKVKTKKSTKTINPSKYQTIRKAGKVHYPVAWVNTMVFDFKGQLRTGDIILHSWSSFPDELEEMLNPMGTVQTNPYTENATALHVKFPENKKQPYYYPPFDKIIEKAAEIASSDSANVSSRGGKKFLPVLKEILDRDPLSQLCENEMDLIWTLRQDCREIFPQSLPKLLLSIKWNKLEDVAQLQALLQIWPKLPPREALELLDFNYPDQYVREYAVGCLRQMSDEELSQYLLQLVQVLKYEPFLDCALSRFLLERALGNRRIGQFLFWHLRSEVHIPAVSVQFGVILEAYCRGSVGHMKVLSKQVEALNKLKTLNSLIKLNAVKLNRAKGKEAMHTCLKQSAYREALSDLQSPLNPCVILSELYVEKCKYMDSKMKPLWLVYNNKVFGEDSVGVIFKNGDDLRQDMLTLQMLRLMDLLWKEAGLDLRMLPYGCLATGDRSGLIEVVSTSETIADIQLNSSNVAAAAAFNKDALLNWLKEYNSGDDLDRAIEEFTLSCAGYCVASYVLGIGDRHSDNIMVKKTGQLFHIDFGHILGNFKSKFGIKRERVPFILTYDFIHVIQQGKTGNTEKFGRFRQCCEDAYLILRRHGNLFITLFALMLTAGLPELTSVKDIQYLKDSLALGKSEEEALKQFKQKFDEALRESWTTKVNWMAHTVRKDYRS
Assay: Enzyme binding assay (KINOMEscan, DiscoveRx)
Details: PIK3Cβ_h, read-out: Kd PIK3Cβ_h
Method: Enzyme Binding Assays (KINOMEscan®) Kinase enzyme binding affinities of compounds disclosed herein were determined using the KINOMEscan technology performed by DiscoveRx Corporation, San Diego, Calif., USA (www.kinomescan.com). Table A reports the obtained Kd values (nM), with the Kd being the inhibitor binding constant: […]
MEASURED PROPERTY: pKd
pKd is a log-scale quantity: -log10 of the concentration expressed in molar.

Q. Would you mind telling me what pKd value was observed for CNCCNC(=O)c1cc(C(C)Nc2cccc(F)c2)c2nc(N3CCOCC3)cnc2c1 (stereo not shown) [Compound 282] ?
A. 9.70

Q. I would be grateful if you could share the reported pKd for CC(Nc1cc(F)c(F)c(F)c1)c1cc(C(=O)NCC(C)(C)O)cc2ncc(N3CCOCC3)nc12 (stereo not shown) [Compound 292] .
A. 7.80

Q. Given the entry CN(C)C(=O)c1cc([C@H]2CCCN2c2cc(F)cc(F)c2)c2nc(N3CCOCC3)cnc2c1 [Compound 1] , report its measured pKd.
A. 9.52

Q. Look at this molecule and give its reported pKd. CN[C@@H]1CCN(C(=O)c2cc(C(C)Nc3ccc(F)c(F)c3)c3nc(N4CCOCC4)cnc3c2)C1 (single isomer, unassigned) [Compound 371a]
A. 9.52

Q. Form field: reported pKd of CC(Oc1ccc(Cl)c(F)c1)c1cc(C(=O)N(C)CCN(C)C)cc2ncc(N3CCOCC3)nc12 (single isomer, unassigned) [Compound 313b]
A. 6.52

Q. Any idea what its pKd is? The molecule is CC(Nc1cc(F)c(F)c(F)c1)c1cc(C(=O)N(C)C2CCNC2)cc2ncc(N3CCOCC3)nc12 (stereo not shown) [Compound 296]
A. 9.00

Q. Request the reported pKd associated with COC(=O)c1cc(C(C)Nc2cccc(F)c2)c2nc(N3CCOCC3)cnc2c1 (single isomer, unassigned) [Compound 262a]
A. 5.75

----------
Target: PI3Kδ (Homo sapiens)
Sequence (O00329 1-1044): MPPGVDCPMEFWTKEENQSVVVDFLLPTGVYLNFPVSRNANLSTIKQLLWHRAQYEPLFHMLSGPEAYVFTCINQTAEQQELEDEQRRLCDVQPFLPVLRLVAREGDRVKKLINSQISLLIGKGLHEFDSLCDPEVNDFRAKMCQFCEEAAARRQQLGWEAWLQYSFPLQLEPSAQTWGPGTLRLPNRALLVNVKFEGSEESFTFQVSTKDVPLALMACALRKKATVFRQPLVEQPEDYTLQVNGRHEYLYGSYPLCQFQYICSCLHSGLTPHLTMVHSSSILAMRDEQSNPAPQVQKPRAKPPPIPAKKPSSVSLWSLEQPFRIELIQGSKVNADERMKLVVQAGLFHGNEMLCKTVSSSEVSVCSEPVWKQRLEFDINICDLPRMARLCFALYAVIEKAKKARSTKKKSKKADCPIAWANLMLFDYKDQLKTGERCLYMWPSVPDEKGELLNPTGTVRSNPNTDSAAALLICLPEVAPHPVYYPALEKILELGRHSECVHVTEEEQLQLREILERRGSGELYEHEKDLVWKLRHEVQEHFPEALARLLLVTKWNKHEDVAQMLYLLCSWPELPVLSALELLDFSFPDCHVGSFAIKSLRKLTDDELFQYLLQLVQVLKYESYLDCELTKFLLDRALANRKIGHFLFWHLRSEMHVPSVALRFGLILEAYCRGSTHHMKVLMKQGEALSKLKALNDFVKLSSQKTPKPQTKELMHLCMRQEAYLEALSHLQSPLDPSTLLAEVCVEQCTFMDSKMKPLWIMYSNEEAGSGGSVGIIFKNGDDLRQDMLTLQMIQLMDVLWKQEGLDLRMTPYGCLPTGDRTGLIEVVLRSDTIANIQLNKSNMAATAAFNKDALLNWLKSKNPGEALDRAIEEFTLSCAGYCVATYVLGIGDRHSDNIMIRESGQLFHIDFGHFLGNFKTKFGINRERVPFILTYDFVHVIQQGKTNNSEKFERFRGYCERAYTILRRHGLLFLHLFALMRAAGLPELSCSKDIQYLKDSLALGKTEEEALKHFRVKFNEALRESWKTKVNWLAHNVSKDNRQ
Provide the recorded pKd for the entries that follow.
Schema: pKd number; meaning minus log10 of the concentration expressed in molar units.

Q. Can you share its pKd? I mean this compound: Cc1c(F)cccc1CNc1cc(C(=O)NCCN(C)C)cc2ncc(N3CCOCC3)nc12
A. 6.63

Q. Look at this compound and give its reported pKd. CC(C)NCCNC(=O)c1cc(C(C)Nc2cc(F)c(F)c(F)c2)c2nc(N3CCOCC3)cnc2c1 (single isomer, unassigned) [Compound 283b]
A. 4.74

Q. Which pKd is reported for this compound? C[C@H](Nc1cc(C(=O)N(C)C)cc2ncc(N3CCOCC3)nc12)c1ccc(F)cc1
A. 4.91

Q. Can you look up the measured pKd of C[C@@H]1CN(c2cnc3cc(C(=O)N(C)C)cc(C4CCCN4c4cc(F)cc(F)c4)c3n2)CCO1 (stereo partly shown) [Compound 4] for me?
A. 4.64
